Test system: A549 human lung cancer cells
Method Summary: Measurement of PGE2 in IL-1β-treated A549 human lung cancer cells
Assay type: cell-based
Experimental Parameters: PGE2 production, A549 cell, IL-1β 1 ng/mL, 48 hours
Observed Property: IC50 (nM)

q: Look at this compound and give its reported IC50. CC(C)C(=O)NCc1ccc(Cl)c(C(=O)Nc2ccc3c(c2)cc(C(=O)N[C@@H](C)c2ccc(OC(F)(F)F)cc2)n3C)c1
a: 51.6

1 = CC(C)C(=O)NCc1ccc(Cl)c(C(=O)Nc2ccc3c(c2)cc(C(=O)N[C@H](C)c2ccc(OC(F)(F)F)cc2)n3C)c1
2 = CC(C)C(=O)NCc1ccc(Cl)c(C(=O)Nc2ccc3c(c2)cc(C(=O)Nc2ccc(F)cc2)n3C)c1
3 = CC(C)C(=O)NCc1ccc(Cl)c(C(=O)Nc2ccc3c(c2)cc(C(=O)N[C@@H](C)c2ccc(Br)cc2)n3CC(F)(F)F)c1
4 = Cc1cc(F)ccc1NC(=O)c1cc2cc(NC(=O)c3cc(CNC(=O)C(C)C)ccc3Cl)ccc2n1C
5 = CC(C)C(=O)NCc1ccc(Cl)c(C(=O)Nc2ccc3[nH]c(C(=O)Nc4ccc(C(F)(F)F)cc4)cc3c2)c1
q: Order each entry by recorded IC50, climbing from the minimum. The labels, placed in the requested order, form the answer.
a: 3, 5, 1, 4, 2
